Consider the following sequences and their measured pKd readings.
biological target: HLA-A*69:01; assay: IEDB peptide-MHC binding, purified MHC/competitive/fluorescence; filed as Kd, often an IC50 or EC50 that approximates it; bounds were set here for any values at or beyond the usual limits of such assays; conditions: source organism: Lechiguanas virus
pKd: −log10 of the molar value.
measurement.kind: pKd

>>> result("KLKSVGKAY")
"≤ 4.70"
>>> result("SCINGQCPY")
"≤ 4.70"

---

molecular target: HLA-A*30:02; test: IEDB peptide-MHC binding, purified MHC/competitive/fluorescence; filed as Kd, often an IC50 or EC50 that approximates it; bounds were set here for any values at or beyond the usual limits of such assays; conditions: source organism: Vibrio cholerae 2740-80
pKd: −log10 of the molar value.
measurement.kind: pKd

>>> result("MGMEQTMSV")
"≤ 5.30"

---

Consider the following sequences and their measured Kd readings.
biological target: HLA-B*15:01; experiment: IEDB peptide-MHC binding, purified MHC/competitive/radioactivity; filed as Kd, often an IC50 or EC50 that approximates it; bounds were set here for any values at or beyond the usual limits of such assays; settings: source organism: Vaccinia virus WR
measurement.kind: Kd (nM)

>>> measured_number("MLMFIFTGI")
1410
>>> measured_number("RLHSNTILK")
2220
>>> measured_number("YAFSKYMSF")
8.99
>>> measured_number("IVYSLVTTI")
542
>>> measured_number("LLYTANFTF")
2.43
>>> measured_number("VNIKYNPHI")
141
>>> measured_number("IKVLVEHGF")
9690
>>> measured_number("LLAISAVYF")
31.7

---

molecular target: HLA-B*15:01; assay: IEDB peptide-MHC binding, purified MHC/competitive/fluorescence; filed as Kd, often an IC50 or EC50 that approximates it; bounds were set here for any values at or beyond the usual limits of such assays; settings: source organism: Listeria monocytogenes EGD-e
measurement.kind: Kd

>>> result("LAIVTTPLV")
"≥ 20 µM"

---

molecular target: HLA-A*68:01; test: IEDB peptide-MHC binding, purified MHC/competitive/radioactivity; filed as Kd, often an IC50 or EC50 that approximates it; bounds were set here for any values at or beyond the usual limits of such assays; conditions: source organism: Lymphocytic choriomeningitis virus (strain Armstrong)
pKd: −log10 of the molar value.
measurement.kind: pKd

>>> result("QFKQDSKYSH")
"≤ 4.15"
>>> result("TLYICDKQSH")
"≤ 4.15"
>>> result("TLGNFSWFPH")
5.05

---

target: HLA-B*57:01; experiment: IEDB peptide-MHC binding, purified MHC/direct/fluorescence; filed as Kd, often an IC50 or EC50 that approximates it; bounds were set here for any values at or beyond the usual limits of such assays; settings: source organism: Influenza A virus (A/chicken/Hubei/wk/1997(H5N1))
pKd: −log10 of the molar value.
measurement.kind: pKd

>>> result("MKWMMAMKY")
"≤ 4.70"

---

biological target: HLA-A*29:02; test: IEDB peptide-MHC binding, purified MHC/direct/fluorescence; filed as Kd, often an IC50 or EC50 that approximates it; bounds were set here for any values at or beyond the usual limits of such assays; conditions: source organism: Yellow fever virus
measurement.kind: Kd

>>> result("PHAATIRVL")
"≥ 20 µM"

Data provenance is the Immune Epitope Database (IEDB).
